Target: T1, BCMA (Homo sapiens (Human), UniProt Q02223 1-54, limits assumed)
T1 sequence: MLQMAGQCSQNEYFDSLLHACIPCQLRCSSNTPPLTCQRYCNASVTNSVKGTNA
Experiment: ELISA, format not described
Parameters: unit not given here
Each record here notes measured ELISA_avg.
Reply: number alone, nothing else.

Example entries and their recorded answers appear below.
| Binder | Recorded Metric | Observed |
| --- | --- | --- |
| D-domain SEQ ID NO: 156 (designed binder) MGSWYEFEDRLLAIKVRLRALGGSEAELAAFEKEIAAFESELQAYKGKGNPEVEYLRDQAAYIRFMLQAYRHN | ELISA_avg | 17.6 |
| D-domain SEQ ID NO: 316 (designed binder) MGSWLDFKEGLADIKRSLEALGGSEAELADFEGVIALFEWKLQTYKGKGNPEVEALRKEAAAIRDELQAYRHN | ELISA_avg | 3.03 |
| D-domain SEQ ID NO: 211 (designed binder) MGSWTEFWERLYAIEYRLFALGGSEAELAAFEKEIAAFESELQAYKGKGNPEVEKLRSVAATIRYELQAYRHN | ELISA_avg | 12.7 |
| D-domain SEQ ID NO: 158 (designed binder) MGSWEEFDDRLNAIVYRLRALGGSEAELAAFEKEIAAFESELQAYKGKGNPEVEMLRDQAAYIRLMLQAYRHN | ELISA_avg | 18.6 |

Inquiry: Report ELISA_avg for D-domain SEQ ID NO: 278 (designed binder) MGSWQGFKYHLALIKFYLEALGGSEAELAHFEHWLAEFEHDLQTYKGKGNPEVEALRKEAAAIRDELQAYRHN please.
Reply text: 21.2
